The measurements presented in this section are drawn from patent US20080090805A1.

Assay: Clearance study, liver microsomes (rats)
Details: rat, pH 7.4
ASSAY_ENDPOINT: microsomal CLint at 1 μM (µL/min/mg)
Give bare numbers, in µL/min/mg.

Known results for compounds:
The value of microsomal CLint at 1 μM measured for the compound `O=C(NCc1ccccc1)c1ccc2c(c1)N=C(c1cccc(Br)c1)c1ccccc1S2` turned out to be 69

The value of microsomal CLint at 1 μM measured for the compound Cc1csc(CNC(=O)c2ccc3c(c2)N=C(c2cccc(F)c2)c2ccccc2S3)c1 [drawing 1709] turned out to be 160

The value of microsomal CLint at 1 μM measured for the compound CC(CNC(=O)c1ccc2c(c1)N=C(C1CCCCC1)c1ccccc1S2)c1ccccc1 (stereo not shown) [drawing 1769] turned out to be 267

// batch mode: one microsomal CLint at 1 μM value per listed entry
1. O=C(NCc1cccnc1)c1ccc2c(c1)N=C(c1cccc(F)c1)c1ccccc1S2 [drawing 1742]
2. CC(C)CNC(=O)c1ccc2c(c1)N=C(c1ccc(Cl)s1)c1ccc(F)cc1S2 [drawing 1793]
3. COc1ccc(C2=Nc3cc(C(=O)NCCC(C)C)ccc3Sc3ccccc32)cc1 [drawing 1785]
4. O=C(NCCc1cccc(Cl)c1)c1ccc2c(c1)N=C(c1ccc(F)cc1)c1ccccc1S2 [drawing 1768]

Resp:
1. 187
2. 49
3. 177
4. 126

----------
Test: Clearance study, liver microsomes (mice)
Details: mouse, pH 7.4
ASSAY_ENDPOINT: microsomal CLint at 1 μM
Form field: result (number plus unit)

Known results for compounds:
The value of microsomal CLint at 1 μM measured for the compound CC(C)CNC(=O)c1ccc2c(c1)N=C(c1cccc(Cl)c1)c1ccccc1S2 [drawing 1795] turned out to be 69 µL/min/mg

The value of microsomal CLint at 1 μM measured for the compound O=C(NCc1ccc(F)cc1)c1ccc2c(c1)N=C(c1ccc(Cl)cc1)c1ccccc1S2 [drawing 1741] turned out to be 130 µL/min/mg

The value of microsomal CLint at 1 μM measured for the compound Cc1ccsc1C1=Nc2cc(C(=O)NN3CCCCCC3)ccc2Sc2ccccc21 [drawing 1706] turned out to be 448 µL/min/mg

The value of microsomal CLint at 1 μM measured for the compound O=C(NCCc1cccnc1)c1ccc2c(c1)N=C(c1ccc(Cl)s1)c1ccccc1S2 [drawing 1690] turned out to be 122 µL/min/mg

The value of microsomal CLint at 1 μM measured for the compound O=C(NCc1ccccc1)c1ccc2c(c1)N=C(c1ccc(Cl)cc1)c1ccccc1S2 [drawing 1801] turned out to be 166 µL/min/mg

// batch mode: one microsomal CLint at 1 μM value per listed entry
1. O=C(NC1CCCCC1)c1ccc2c(c1)N=C(c1ccc(Cl)cc1)c1ccccc1S2 [drawing 1712]
2. O=C(NCc1cccnc1)c1ccc2c(c1)N=C(c1ccc(F)cc1)c1ccccc1S2 [drawing 1724]
3. O=C(NCc1cccs1)c1ccc2c(c1)N=C(c1cccc(Cl)c1)c1ccccc1S2 [drawing 1733]
4. CC(C)CCNC(=O)c1ccc2c(c1)N=C(c1ccccn1)c1ccccc1S2 [drawing 1784]
5. O=C(NC1CCCCC1)c1ccc2c(c1)N=C(c1cccc(F)c1)c1ccccc1S2 [drawing 1757]
6. CCCCNC(=O)c1ccc2c(c1)N=C(c1ccc(F)cn1)c1ccccc1S2 [drawing 1752]

Resp:
1. 78 µL/min/mg
2. 101 µL/min/mg
3. 187 µL/min/mg
4. 68 µL/min/mg
5. 176 µL/min/mg
6. 668 µL/min/mg
